# Organism: Rattus norvegicus
# measurementNotes: Percent inhibition of [14C]acetate incorporation into cholesterol, after incubation with rat liver slices, at a concentration of 0.005 M
# Format: functional
observedProperty: Inhibition
Returns: string containing the numeric result and its unit.

Worked examples follow.
>  <molecule>
CCC1(C)OC(=O)C2=C1CCCC2 (configuration not stated)

>  <Inhibition>
81%

$$$$
>  <molecule>
CC1(CC(=O)O)OC(=O)[C@@H]2CCCC[C@H]21 (some centres not stated)

>  <Inhibition>
42%

$$$$
>  <molecule>
CC(O)(CC(=O)O)CC(=O)O

>  <Inhibition>
12%

$$$$
>  <molecule>
CCC1(C)OC(=O)c2ccccc21 (configuration not stated)

>  <Inhibition>
99%

$$$$
>  <molecule>
CC1(CC(=O)O)OC(=O)C2=C1CCCC2 (configuration not stated)

>  <Inhibition>
63%

$$$$

// returns reported Inhibition for input CC1(CC(=O)O)OC(=O)[C@H]2CCCC[C@H]21 (some centres not stated) 30%

Give the measured Inhibition of CC1(CC(=O)O)OC(=O)c2ccccc21 (configuration not stated) . 48%

Source of measurements: ChEMBL document CHEMBL1122417
